# ASSAY_PROTOCOL: Volume of distribution at steady state in CD1 mouse at 3 mg/kg, iv
# Format: ADME, organism-based
# Set-up: dose 3 mg/kg, route intravenous
# PARTICULARS: in vivo, read-out: Vdss
MEASURE_NAME: Vd (L/kg)
Reply numerically in L/kg, unit not repeated.

Problem: Tell me the measured Vd of Cc1cc(Nc2nc(N[C@@H](C)c3ncc(F)cn3)ncc2Cl)n[nH]1 , please.
Solution: 1.1

====

# ASSAY_PROTOCOL: Volume of distribution at steady state in Han Wistar rat at 10 mg/kg, po and 3 mg/kg, iv
# Format: ADME, organism-based
# PARTICULARS: in vivo, read-out: Vdss
MEASURE_NAME: Vd

Problem: Vd lookup needed for Cc1cc(Nc2nc(N[C@H](C)c3ncc(F)cn3)ncc2Cl)n[nH]1 , thanks.
Solution: 3 L/kg

Problem: What do we get for Cc1cc(Nc2nc(N[C@@H](C)c3ncc(F)cn3)ncc2Cl)n[nH]1 ?
Solution: 3.6 L/kg

Problem: What do you get for Cc1cc(Nc2nc(N[C@@H](C)c3ncc(F)cn3)nc(N3CCOCC3)c2Cl)n[nH]1 ?
Solution: 4.6 L/kg

Problem: And then Cc1cc(Nc2nc(N[C@@H](C)c3ncc(F)cn3)nc(N3CCOCC3)c2F)n[nH]1 , what is it?
Solution: 1.7 L/kg

Problem: Request: Cc1cc(Nc2nc(N[C@@H](C)c3ncc(F)cn3)ncc2F)n[nH]1
Solution: 0.8 L/kg

Problem: Param item: Cc1cc(Nc2cc(N3CCOCC3)nc(N[C@@H](C)c3ncc(F)cn3)n2)[nH]n1
Solution: 1.4 L/kg

Problem: Param item: Cc1cc(Nc2nc(N[C@@H](C)c3ncc(F)cn3)ncc2C)n[nH]1
Solution: 2.4 L/kg

====

I'd appreciate it if you could supply logD values for the items below.
# ASSAY_PROTOCOL: Octanol-water partition coefficient, log D of the compound at pH 7.4 by shake flask method
# Type: physicochemical

Problem: So what's the measured logD for this one? COc1cc(Nc2nc(N[C@@H](C)c3ncc(F)cn3)nc(N3CCOCC3)c2F)n[nH]1
Solution: < 2.6

Problem: Query Cc1cc(Nc2nc(N[C@@H](C)c3ncc(F)cn3)ncc2Cl)n[nH]1 next
Solution: < 2.6

Problem: Continue with Cc1cc(Nc2nc(N[C@@H](C)c3ncc(F)cn3)nc(N3CCOCC3)c2Cl)n[nH]1
Solution: < 2.6

Problem: Repeat with C[C@H](Nc1ncc(F)c(Nc2cc(C3CC3)[nH]n2)n1)c1ncc(F)cn1
Solution: < 2.6

Problem: Quick one: COc1cc(Nc2nc(N[C@@H](C)c3ncc(F)cn3)ncc2Cl)n[nH]1
Solution: < 2.6

Problem: Same for Cc1cc(Nc2nc(N[C@H](C)c3ncc(F)cn3)ncc2Cl)n[nH]1
Solution: < 2.6

Problem: Next: Cc1cc(Nc2nc(O[C@@H](C)c3ncc(F)cn3)ncc2Cl)n[nH]1
Solution: < 2.6

Problem: Try this compound next: COc1cc(Nc2cc(N3CCOCC3)nc(N[C@@H](C)c3ncc(F)cn3)n2)n[nH]1
Solution: < 2.6

Problem: Now consider Cc1cc(Nc2nc(N[C@@H](C)c3ncc(F)cn3)nc(N3CCOCC3)c2F)n[nH]1 and answer again.
Solution: < 2.6

Problem: Then what about the compound COc1cc(Nc2nc(N[C@@H](C)c3ncc(F)cn3)nc(N3CCOCC3)c2Cl)n[nH]1 ?
Solution: < 2.6

Problem: Same again, this time with C[C@H](Nc1ncc(Cl)c(Nc2cc(C3CC3)[nH]n2)n1)c1ncc(F)cn1
Solution: < 2.6

Problem: What about Cc1cc(Nc2nc(N[C@@H](C)c3ncc(F)cn3)ncc2Br)n[nH]1 ?
Solution: < 2.6

Problem: Queued: Cc1cc(Nc2nc(N[C@@H](C)c3ncc(F)cn3)ncc2F)n[nH]1
Solution: < 2.6

Problem: Try the compound Cc1cc(Nc2cc(N3CCOCC3)nc(N[C@@H](C)c3ncc(F)cn3)n2)[nH]n1
Solution: < 2.6

Problem: And then COc1cc(Nc2nc(N[C@@H](C)c3ncc(F)cn3)ncc2Br)n[nH]1 , what is it?
Solution: < 2.6

Problem: Then what about the compound Cc1cc(Nc2nc(O[C@H](C)c3ncc(F)cn3)ncc2Cl)n[nH]1 ?
Solution: < 2.6

Problem: Also need C[C@H](Nc1ncc(Cl)c(Nc2cc(N(C)C)[nH]n2)n1)c1ncc(F)cn1 , thanks.
Solution: < 2.6

Problem: Continue with C[C@H](Nc1ncc(F)c(Nc2cc(N(C)C)[nH]n2)n1)c1ncc(F)cn1
Solution: < 2.6

Problem: Subsequent entry: Cc1cc(Nc2nc(N[C@@H](C)c3ncc(F)cn3)ncc2C)n[nH]1
Solution: < 2.6
